Entries and their IC50, ERK phosphorylation in U2OS hGFRAL/hRET cells
# SYSTEM_TESTED: T1, human GFRAL expressed on cells (human, UniProt Q6UXV0 20-394)
# T1 sequence: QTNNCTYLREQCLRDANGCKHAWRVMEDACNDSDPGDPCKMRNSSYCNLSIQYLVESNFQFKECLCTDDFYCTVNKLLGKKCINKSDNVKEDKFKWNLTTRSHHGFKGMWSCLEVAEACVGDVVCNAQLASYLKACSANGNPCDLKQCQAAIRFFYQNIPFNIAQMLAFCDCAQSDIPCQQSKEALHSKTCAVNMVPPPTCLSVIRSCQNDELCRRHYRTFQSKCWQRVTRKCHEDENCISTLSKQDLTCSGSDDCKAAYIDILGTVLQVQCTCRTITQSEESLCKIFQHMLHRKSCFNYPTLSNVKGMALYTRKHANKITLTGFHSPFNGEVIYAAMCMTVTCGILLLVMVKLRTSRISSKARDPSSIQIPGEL
# PROTOCOL_NOTES: cell-based or functional assay
A complete answer gives the number and then names the unit.

Here's what some known entries look like.
{"columns": ["BINDER", "OBSERVED"],
 "data": [
  ["humanized anti-GFRAL antibody HC-344e/LC-344h (antibody, IgG1, V domains shown, humanized 3P10; also called h3P10) VH: QVQLVQSGAEVKKPGSSVKVSCKASGYTFTDYGVIWVRQAPGQGLEWMGWINTYTGEPTYADDLKGRVTFTADESTSTAYMELSSLRSEDTAVYYCARRYGPEDIDYWGQGTTVTVSS VL: DVVLTQSPLSLPVTLGQPASISCRASESVDNYGISFMSWFQQRPGQSPRLLIYAASHQGSGVPDRFSGSGSGTDFTLKISRVEAEDVGVYFCLQSKEVPWTFGGGTKVEIK", "3.3 nM"],
  ["humanized anti-GFRAL antibody HC-344a/LC-344c (antibody, IgG1, V domains shown, humanized 3P10) VH: QVQLVQSGAEVKKPGSSVKVSCKASGYTFTDYGVIWVRQAPGQGLEWMGWINTYTGEPTYADDLKGRVTITADESTSTAYMELSSLRSEDTAVYYCARRYGPEDIDYWGQGTTVTVSS VL: DIVLTQSPLSLPVTLGQPASISCRASESVDNYGISFMSWFQQRPGQSPRLLIYAASHQGSGVPDRFSGSGSGTDFTLKISRVEAEDVGVYFCLQSKEVPWTFGGGTKVEIK", "5.13 nM"]
]}

IC50, ERK phosphorylation in U2OS hGFRAL/hRET cells for humanized anti-GFRAL antibody HC-344a/LC-344h (antibody, IgG1, V domains shown, humanized 3P10) VH: QVQLVQSGAEVKKPGSSVKVSCKASGYTFTDYGVIWVRQAPGQGLEWMGWINTYTGEPTYADDLKGRVTITADESTSTAYMELSSLRSEDTAVYYCARRYGPEDIDYWGQGTTVTVSS VL: DVVLTQSPLSLPVTLGQPASISCRASESVDNYGISFMSWFQQRPGQSPRLLIYAASHQGSGVPDRFSGSGSGTDFTLKISRVEAEDVGVYFCLQSKEVPWTFGGGTKVEIK ?
5.02 nM

IC50, ERK phosphorylation in U2OS hGFRAL/hRET cells for humanized anti-GFRAL antibody HC-344h/LC-344c (antibody, V domains shown, humanized 3P10) VH: QIQLVQSGAEVKKPGSSVKVSCKASGYTFTDYGVIWVRQAPGQGLKWMGWINTYTGEPTYADDLKGRVTFTADESTSTAYMELSSLRSEDTAVYYCARRYGPEDIDYWGQGTTVTVSS VL: DIVLTQSPLSLPVTLGQPASISCRASESVDNYGISFMSWFQQRPGQSPRLLIYAASHQGSGVPDRFSGSGSGTDFTLKISRVEAEDVGVYFCLQSKEVPWTFGGGTKVEIK ?
15.1 nM
